Test system: B. subtilis 168;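 note: first quartile when negative (synergy) and third quartile when positive (antagonism)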
Assay: Bliss interaction score (quartile over a dose matrix) (fitness difference); higher = more antagonism (negative = synergy)

- molecule: "C[C@@H]1O[C@@H]1P(=O)(O)O [Fosfomycin] + CN(N=O)C(=O)N[C@@H](C=O)[C@@H](O)[C@H](O)[C@H](O)CO [Streptozotocin]"
  Bliss interaction score: -0.108
- molecule: "CC(=O)Oc1ccccc1C(=O)O [Acetylsalicylicacid] + CC1(C)S[C@@H]2[C@H](NC(=O)Cc3ccccc3)C(=O)N2[C@H]1C(=O)O [PenicillinG]"
  Bliss interaction score: 0.117
- molecule: "O=C(O)c1cn(C2CC2)c2cc(N3CCNCC3)c(F)cc2c1=O [Ciprofloxacin] + N[C@@H]1CONC1=O [CycloserineD]"
  Bliss interaction score: -0.0971
- molecule: "N#CC(C#N)=NNc1cccc(Cl)c1 [CCCP] + COc1cc(Cc2cnc(N)nc2N)cc(OC)c1OC [Trimethoprim]"
  Bliss interaction score: 0.0605
- molecule: "CC(=O)Oc1ccccc1C(=O)O [Acetylsalicylicacid] + Oc1cc(Cl)ccc1Oc1ccc(Cl)cc1Cl [Triclosan]"
  Bliss interaction score: 0.129
- molecule: "CC1(C)S[C@@H]2[C@H](NC(=O)Cc3ccccc3)C(=O)N2[C@H]1C(=O)O [PenicillinG] + CN[C@H](CC(C)C)C(=O)N[C@H]1C(=O)N[C@@H](CC(N)=O)C(=O)N[C@H]2C(=O)N[C@H]3C(=O)N[C@H](C(=O)N[C@H](C(=O)O)c4cc(O)cc(O)c4-c4cc3ccc4O)[C@H](O)c3ccc(c(Cl)c3)Oc3cc2cc(c3O[C@@H]2O[C@H](CO)[C@@H](O)[C@H](O)[C@H]2O[C@H]2C[C@](C)(N)[C@H](O)[C@H](C)O2)Oc2ccc(cc2Cl)[C@H]1O [Vancomycin]"
  Bliss interaction score: -0.039
- molecule: "O=C(O)c1cn(C2CC2)c2cc(N3CCNCC3)c(F)cc2c1=O [Ciprofloxacin] + O=C(O[C@@H]1Cc2c(O)cc(O)cc2O[C@@H]1c1cc(O)c(O)c(O)c1)c1cc(O)c(O)c(O)c1 [EGCG]"
  Bliss interaction score: 0.149
- molecule: "Cc1ncc([N+](=O)[O-])n1CCO [Metronidazole] + O=C1CN(/N=C/c2ccc([N+](=O)[O-])o2)C(=O)N1 [Nitrofurantoin]"
  Bliss interaction score: 0.0755
- molecule: "N#CC(C#N)=NNc1cccc(Cl)c1 [CCCP] + CC[C@H]1OC(=O)[C@H](C)[C@@H](O[C@H]2C[C@@](C)(OC)[C@@H](O)[C@H](C)O2)[C@H](C)[C@@H](O[C@@H]2O[C@H](C)C[C@H](N(C)C)[C@H]2O)[C@](C)(O)C[C@@H](C)C(=O)[C@H](C)[C@@H](O)[C@]1(C)O [Erythromycin]"
  Bliss interaction score: -0.0587
